System: Plasmodium falciparum
Assay: Inhibitory concentration IC50 against Plasmodium falciparum K1 by [3H]hypoxanthine uptake over 24 hr
Format: functional, organism-based
pIC50: −log10 of the molar value.
Measurement type: pIC50

# Molecular string, pIC50
records = [
    ("COc1ccc(Nc2c3ccc(N)cc3nc3cc(N)ccc23)cc1", 6.82),
    ("Cc1ccc(Nc2c3ccc(N)cc3nc3cc(N)ccc23)cc1", 6.82),
    ("COc1cc(NS(C)(=O)=O)ccc1Nc1c2ccc(N)cc2nc2cc(N)ccc12", 7.00),
    ("CN(C)S(=O)(=O)c1ccc(Nc2c3ccc(N)cc3nc3cc(N)ccc23)cc1", 6.80),
    ("NC(=O)c1ccc(Nc2c3ccc(N)cc3nc3cc(N)ccc23)cc1", 7.15),
]

(I) CN(C)Cc1ccc(Nc2c3ccccc3nc3ccccc23)cc1
(II) CN(C)Cc1ccc(Nc2c3ccccc3nc3cc(N)ccc23)cc1
IN: Among I and II , whose measured pIC50 is the smaller figure? Provide the label of your selected option as the answer.
OUT: II
(II: 6.60, I: 6.82)

(I) [N-]=[N+]=Nc1ccc2c(Nc3ccc(C(N)=O)cc3)c3ccc(N=[N+]=[N-])cc3nc2c1
(II) CNS(=O)(=O)c1ccc(Nc2c3ccc(N)cc3nc3cc(N)ccc23)cc1
(III) CCCCCNCc1ccc(Nc2c3ccc(N)cc3nc3cc(N)ccc23)cc1
IN: Place the items in sequence of falling pIC50. Respond with an ordered listing of the labels, as requested.
OUT: II, I, III

* * *

Test: In vitro therapeutic index value is the ratio between IC50 values of [J] and [P]
Format: cell-based
Conditions: human, Jurkat cells; read-out: TI
Measurement type: selectivity ratio
Give the value as a plain number.

// solved cases for selectivity ratio follow
# Molecular string, Endpoint value
records = [
    ("COc1cc(NS(C)(=O)=O)ccc1Nc1c2ccc(N)cc2nc2cc(N)ccc12", 8),
    ("Nc1ccc(Nc2c3ccc(N)cc3nc3cc(N)ccc23)cc1", 600),
    ("Cc1ccc(Nc2c3ccc(N)cc3nc3cc(N)ccc23)cc1", 20),
]

IN: Write down selectivity ratio measured for item CNc1ccc(Nc2c3ccc(N)cc3nc3cc(N)ccc23)cc1
OUT: 72

IN: Supply reported selectivity ratio belonging to this compound: CCCCCNCc1ccc(Nc2c3ccc(N)cc3nc3cc(N)ccc23)cc1
OUT: 27

IN: Query selectivity ratio for Nc1ccc2c(Nc3ccccc3)c3ccc(N)cc3nc2c1
OUT: 50

IN: Supply measured selectivity ratio of CNS(=O)(=O)c1ccc(Nc2c3ccc(N)cc3nc3cc(N)ccc23)cc1 in your reply.
OUT: 143

* * *

Test: In vitro therapeutic index value is the ratio between IC50 values of [J] and [P]
Assay type: cell-based
Conditions: human, Jurkat cells; read-out: TI
Measurement type: selectivity ratio
Lab note: write the figure by itself, no unit.

# Molecular string, selectivity ratio
rows = [
    ("COc1ccc(Nc2c3ccc(N)cc3nc3cc(N)ccc23)cc1", 27),
    ("CN(C)Cc1ccc(Nc2c3ccccc3nc3ccccc23)cc1", 50),
]

IN: Entry Nc1ccc2c(=Nc3ccc(S(N)(=O)=O)cc3)c3ccc(N)cc3[nH]c2c1 needs its selectivity ratio filled in; supply it.
OUT: 1000

IN: Recall and state the measured selectivity ratio for COc1cc(Nc2c3ccc(N)cc3nc3cc(N)ccc23)ccc1NS(C)(=O)=O .
OUT: 17

IN: Please report selectivity ratio for the following compound: [N-]=[N+]=Nc1ccc2c(Nc3ccc(C(N)=O)cc3)c3ccc(N=[N+]=[N-])cc3nc2c1
OUT: 25

IN: Retrieve selectivity ratio measured for Nc1ccc(Nc2c3ccccc3nc3ccccc23)cc1 and print it.
OUT: 0.5

IN: Report measured selectivity ratio; entry is CN(C)c1ccc(Nc2c3ccc(N)cc3nc3cc(N)ccc23)cc1
OUT: 176

IN: Query selectivity ratio for CS(=O)(=O)Nc1ccc(Nc2c3ccccc3nc3cc(N)ccc23)cc1
OUT: 0.7

IN: Identify selectivity ratio associated with the compound Nc1ccc2c(Nc3ccc(O)cc3)c3ccc(N)cc3nc2c1
OUT: 200
